test: amyloid nucleation score (Sup35N fusion, yeast selection) (log enrichment); library NNK2; higher = more nucleation; inactive = no reads after selection;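 note: zero at mode of non-aggregating sequences after 7 days selection at 30°C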
quantity: amyloid nucleation score
Write no unit; give the number alone.

The substance "TVYAIP" showed amyloid nucleation score equal to -0.322

The substance "TICGSCT" showed amyloid nucleation score equal to 0.045

The substance "VNGPEDPPVHKLMKSTRRSC" showed amyloid nucleation score equal to 2.79

The substance "NLCGCAMVCWVPF" showed amyloid nucleation score equal to -0.217

The substance "YTRSYGPFPSHLVNLARNLS" showed amyloid nucleation score equal to -0.905

The substance "GVRMQLFGTLMSSAHQVRVG" showed amyloid nucleation score equal to 0.69

The substance "LNTYMAYSGWIVTN" showed amyloid nucleation score equal to -0.148

The substance "SCFVLLSSVDSLCMQDHF" showed amyloid nucleation score equal to 0.311

The substance "GCVNYNGRCEVDGRAD" showed amyloid nucleation score equal to -0.227

The substance "TASIDKRVTGSSREWWRSRQ" showed amyloid nucleation score equal to 0.357

The substance "ALLVILLDCLQFIYMTELNC" showed amyloid nucleation score equal to -0.032

The substance "MYLLFGSLTVYRIHYSVSNT" showed amyloid nucleation score equal to -1.14

The substance "VIRVESCPVYFYLTTRTAGS" showed amyloid nucleation score equal to 0.633

The substance "SSRVDLLLLVETAFARSRIW" showed amyloid nucleation score equal to 3.31

The substance "NFNCYFS" showed amyloid nucleation score equal to 4.89

The substance "GELGQCVIKSVMSMLHKRAN" showed amyloid nucleation score equal to -0.347

The substance "DDHLCSFLRFFTNKRKRA" showed amyloid nucleation score equal to 4.67
